B1: glmS ribozyme (parent)
chain: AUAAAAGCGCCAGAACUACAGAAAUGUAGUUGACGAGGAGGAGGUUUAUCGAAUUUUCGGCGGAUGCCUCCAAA

# Variants of: B1
# method: self-cleavage kobs at 160 uM GlcN6P; higher = faster cleavage; RNA array
# assay context: with glucosamine-6-phosphate
Variants at the floor of the assay were thinned out.
Exercise: state measured self-cleavage kobs at 160 uM GlcN6P for each of the variants provided.

G13A C58A : 5.76e-05 s⁻¹
A6C A42U : < 1e-05 s⁻¹
U55C G60U : < 1e-05 s⁻¹
C10G G44U C50U C61U : < 1e-05 s⁻¹
A14U C50G C67U : 0.000222 s⁻¹

For each of the variants below, note its self-cleavage kobs at 160 uM GlcN6P.
1. A48U C58U
2. U46A G59U
3. A39G U55G
4. G29A U54C
5. G13C G35A
6. A12C G51C U57C A64C
7. A12G C71U

< 1e-05 s⁻¹
< 1e-05 s⁻¹
0.00211 s⁻¹
0.000257 s⁻¹
< 1e-05 s⁻¹
< 1e-05 s⁻¹
5.89e-05 s⁻¹

For each of the variants below, note its self-cleavage kobs at 160 uM GlcN6P.
1. G66U C68G
2. C8G U30A
3. C8U A15G C34U G35U A36U C68A
4. G40U C61A G63C

1. 3.35e-05 s⁻¹
2. < 1e-05 s⁻¹
3. < 1e-05 s⁻¹
4. < 1e-05 s⁻¹

For each of the variants below, note its self-cleavage kobs at 160 uM GlcN6P.
1. U47C G66C
2. U45A C71G
3. U45A A53G
4. A15U C71A
5. A12G G13C G29A C50G

1. < 1e-05 s⁻¹
2. 0.00023 s⁻¹
3. 0.00536 s⁻¹
4. 8.62e-05 s⁻¹
5. 0.00168 s⁻¹

Consider A6C U57C . Its measured self-cleavage kobs at 160 uM GlcN6P is < 1e-05 s⁻¹
